- tested target: T1, PC2, P16519
- T1 chain: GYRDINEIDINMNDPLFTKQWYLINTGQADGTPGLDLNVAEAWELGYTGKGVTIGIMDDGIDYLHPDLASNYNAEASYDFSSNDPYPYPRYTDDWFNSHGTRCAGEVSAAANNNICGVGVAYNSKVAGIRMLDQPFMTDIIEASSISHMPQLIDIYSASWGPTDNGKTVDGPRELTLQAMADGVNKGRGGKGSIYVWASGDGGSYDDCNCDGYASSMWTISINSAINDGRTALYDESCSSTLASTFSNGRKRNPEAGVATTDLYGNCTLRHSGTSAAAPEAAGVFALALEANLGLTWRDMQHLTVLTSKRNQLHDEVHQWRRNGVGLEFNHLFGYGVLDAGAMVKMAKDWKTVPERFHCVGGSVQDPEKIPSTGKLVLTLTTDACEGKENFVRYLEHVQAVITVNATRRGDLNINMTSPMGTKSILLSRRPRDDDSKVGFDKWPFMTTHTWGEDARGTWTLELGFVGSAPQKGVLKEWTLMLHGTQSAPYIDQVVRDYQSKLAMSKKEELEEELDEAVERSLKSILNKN
- reported conditions: modification not given
No end group written: not given here.
measurement type: pKi
Answer as the number alone; pKi is minus log10 of concentration in mol/L.

Inquiry: Consider the binder shown here: Ac-LLRVKR [Ac-LLRVKR] What is its recorded pKi?
Reply text: 5.89

All values here come from patent US7033991.
